Data credit: a melting point compilation (Tetko et al.; mined from patent text by program, amines drawn as free bases though some values may be those of a salt)

Below, each of the compounds is paired with its reported melting point value.

Answered examples (4):
INSERT INTO measurements (compound, val) VALUES
  ('CCOC(=O)Cn1c2c(c3c(Cl)c(Cl)ccc31)CCN(C(=O)OC(C)(C)C)CC2', '136 to 138 °C'),
  ('O=c1cnc2c(NC(CO)CO)nc(SCc3cccs3)nc2[nH]1', '220 to 223 °C'),
  ('O=C(Nc1cc(-c2nc(-c3ccco3)no2)ccc1Cl)OCC(Cl)(Cl)Cl', '114 to 116 °C'),
  ('CCOC(=O)CN(c1ccc(Cl)cc1C(O)c1ccccc1Cl)S(=O)(=O)c1ccc(OC)c(OC)c1 (stereo not given)', '86 °C');

Kindly review the next compound as well.
Briefly, melting point measured for `COc1ccc(-c2ccc(NC(=O)CCc3ccc(CN4CCCC4)cc3)cc2)cc1` : 185 to 188 °C
